System: mice
Assay: Acute toxicity test (Experiment 8)
Details: oral, highest possible doses

| structure as smiles | measured target | Mortality |
| --- | --- | --- |
| OC[C@H]1O[C@H](O[C@H]2O[C@H](CO)[C@@H](O[C@H]3O[C@H](CO)[C@@H](O[C@H]4O[C@H](CO)[C@@H](O[C@H]5O[C@H](CO)[C@@H](O)[C@H](O)[C@H]5O)[C@H](O)[C@H]4O)[C@H](O)[C@H]3O)[C@H](O)[C@H]2O)[C@H](O)[C@@H](O)[C@@H]1O | mice | no mouse died |
| OC[C@H]1O[C@H](O[C@H]2O[C@H](CO)[C@@H](O[C@H]3O[C@H](CO)[C@@H](O[C@H]4O[C@H](CO)[C@@H](O)[C@H](O)[C@H]4O)[C@H](O)[C@H]3O)[C@H](O)[C@H]2O)[C@H](O)[C@@H](O)[C@@H]1O | mice | no mouse died |

----------
Test: Maillard reaction with glycine, absorbance at 480 nm
Assay type: physicochemical
Description: A solution, containing one % glycine and 10% of a saccharide preparation PI, P II, P III, P IV or P V in Experiment 4 and 50 mM phosphate buffer (pH 7.0), was kept at 100° C. for 90 min, followed by cooling the resultant solution, and determining for absorbance at a wave length of 480 nm in a 1-cm cell. […]
assay endpoint: Coloration degree relative to corresponding material maltooligosaccharides

# Coloration degree relative to corresponding material maltooligosaccharides of OC[C@H]1O[C@H](O[C@H]2O[C@H](CO)[C@@H](O[C@H]3O[C@H](CO)[C@@H](O[C@H]4O[C@H](CO)[C@@H](O[C@H]5O[C@H](CO)[C@@H](O)[C@H](O)[C@H]5O)[C@H](O)[C@H]4O)[C@H](O)[C@H]3O)[C@H](O)[C@H]2O)[C@H](O)[C@@H](O)[C@@H]1O [P III, α-maltotriosyltrehalose] = 3-6%

Reported Coloration degree relative to corresponding material maltooligosaccharides of OC[C@H]1O[C@H](O[C@H]2O[C@H](CO)[C@@H](O[C@H]3O[C@H](CO)[C@@H](O)[C@H](O)[C@H]3O)[C@H](O)[C@H]2O)[C@H](O)[C@@H](O)[C@@H]1O [P I, α-glucosyltrehalose] : 3-6%

Measured Coloration degree relative to corresponding material maltooligosaccharides, OC[C@H]1O[C@H](O[C@H]2O[C@H](CO)[C@@H](O[C@H]3O[C@H](CO)[C@@H](O[C@H]4O[C@H](CO)[C@@H](O)[C@H](O)[C@H]4O)[C@H](O)[C@H]3O)[C@H](O)[C@H]2O)[C@H](O)[C@@H](O)[C@@H]1O [P II, α-maltosyltrehalose] : 3-6%

// Coloration degree relative to corresponding material maltooligosaccharides value for OC[C@H]1O[C@H](O[C@H]2O[C@H](CO)[C@@H](O[C@H]3O[C@H](CO)[C@@H](O[C@H]4O[C@H](CO)[C@@H](O[C@H]5O[C@H](CO)[C@@H](O[C@H]6O[C@H](CO)[C@@H](O[C@H]7O[C@H](CO)[C@@H](O)[C@H](O)[C@H]7O)[C@H](O)[C@H]6O)[C@H](O)[C@H]5O)[C@H](O)[C@H]4O)[C@H](O)[C@H]3O)[C@H](O)[C@H]2O)[C@H](O)[C@@H](O)[C@@H]1O [P V, α-maltopentaosyltrehalose] : 3-6%

get_value(item= OC[C@H]1O[C@H](O[C@H]2O[C@H](CO)[C@@H](O[C@H]3O[C@H](CO)[C@@H](O[C@H]4O[C@H](CO)[C@@H](O[C@H]5O[C@H](CO)[C@@H](O[C@H]6O[C@H](CO)[C@@H](O)[C@H](O)[C@H]6O)[C@H](O)[C@H]5O)[C@H](O)[C@H]4O)[C@H](O)[C@H]3O)[C@H](O)[C@H]2O)[C@H](O)[C@@H](O)[C@@H]1O [P IV, α-maltotetraosyltrehalose] , readout=Coloration degree relative to corresponding material maltooligosaccharides) returns 3-6%

----------
Test: Reducing power on the Somogyi-Nelson's method expressed by DE
Assay type: physicochemical
Conditions: d.s.b.
assay endpoint: DE (reducing power)

response.value for OC[C@H]1O[C@H](O[C@H]2O[C@H](CO)[C@@H](O[C@H]3O[C@H](CO)[C@@H](O[C@H]4O[C@H](CO)[C@@H](O)[C@H](O)[C@H]4O)[C@H](O)[C@H]3O)[C@H](O)[C@H]2O)[C@H](O)[C@@H](O)[C@@H]1O [P II, α-maltosyltrehalose] (field: DE (reducing power)) = 0.35

Entry OC[C@H]1O[C@H](O[C@H]2O[C@H](CO)[C@@H](O[C@H]3O[C@H](CO)[C@@H](O[C@H]4O[C@H](CO)[C@@H](O[C@H]5O[C@H](CO)[C@@H](O)[C@H](O)[C@H]5O)[C@H](O)[C@H]4O)[C@H](O)[C@H]3O)[C@H](O)[C@H]2O)[C@H](O)[C@@H](O)[C@@H]1O [P III, α-maltotriosyltrehalose] — recorded DE (reducing power) = 0.10

Briefly, DE (reducing power) measured for OC[C@H]1O[C@H](O[C@H]2O[C@H](CO)[C@@H](O[C@H]3O[C@H](CO)[C@@H](O[C@H]4O[C@H](CO)[C@@H](O[C@H]5O[C@H](CO)[C@@H](O[C@H]6O[C@H](CO)[C@@H](O)[C@H](O)[C@H]6O)[C@H](O)[C@H]5O)[C@H](O)[C@H]4O)[C@H](O)[C@H]3O)[C@H](O)[C@H]2O)[C@H](O)[C@@H](O)[C@@H]1O [P IV, α-maltotetraosyltrehalose] : 0.27

Briefly, DE (reducing power) measured for OC[C@H]1O[C@H](O[C@H]2O[C@H](CO)[C@@H](O[C@H]3O[C@H](CO)[C@@H](O)[C@H](O)[C@H]3O)[C@H](O)[C@H]2O)[C@H](O)[C@@H](O)[C@@H]1O [P I, α-glucosyltrehalose] : 0.83

Consider OC[C@H]1O[C@H](O[C@H]2O[C@H](CO)[C@@H](O[C@H]3O[C@H](CO)[C@@H](O[C@H]4O[C@H](CO)[C@@H](O[C@H]5O[C@H](CO)[C@@H](O[C@H]6O[C@H](CO)[C@@H](O[C@H]7O[C@H](CO)[C@@H](O)[C@H](O)[C@H]7O)[C@H](O)[C@H]6O)[C@H](O)[C@H]5O)[C@H](O)[C@H]4O)[C@H](O)[C@H]3O)[C@H](O)[C@H]2O)[C@H](O)[C@@H](O)[C@@H]1O [P V, α-maltopentaosyltrehalose] . Its measured DE (reducing power) is 0.23

----------
System: non-reducing saccharide-forming enzyme
Type: biochemical, Rhizobium sp. M-11
Details: non-reducing saccharide-forming enzyme, 48 h, pH 7
Consider the following compounds; for each one, report its Percentage of remaining substrate on HPLC.
Enter your answer as a number in %; do not include the unit.

Percentage of remaining substrate on HPLC reading for OC[C@H]1O[C@H](O[C@H]2[C@H](O)[C@@H](O)[C@@H](O[C@H]3[C@H](O)[C@@H](O)[C@@H](O[C@H]4[C@H](O)[C@@H](O)C(O)O[C@@H]4CO)O[C@@H]3CO)O[C@@H]2CO)[C@H](O)[C@@H](O)[C@@H]1O (some centres unmarked) : 14.4

Value of Percentage of remaining substrate on HPLC reported for the compound OC[C@H]1OC(O)[C@H](O)[C@@H](O)[C@@H]1O (some centres unmarked) is 100.0

Record summary for OC[C@H]1O[C@H](O[C@H]2[C@H](O)[C@@H](O)C(O)O[C@@H]2CO)[C@H](O)[C@@H](O)[C@@H]1O (mixture of isomers) : reported Percentage of remaining substrate on HPLC = 100.0

Value of measured Percentage of remaining substrate on HPLC for the entry OC[C@H]1O[C@H](O[C@H]2[C@H](O)[C@@H](O)[C@@H](O[C@H]3[C@H](O)[C@@H](O)C(O)O[C@@H]3CO)O[C@@H]2CO)[C@H](O)[C@@H](O)[C@@H]1O (some centres unmarked) : 65.0

Entry under test: OC[C@H]1O[C@H](O[C@H]2[C@H](O)[C@@H](O)[C@@H](O[C@H]3[C@H](O)[C@@H](O)[C@@H](O[C@H]4[C@H](O)[C@@H](O)[C@@H](O[C@H]5[C@H](O)[C@@H](O)[C@@H](O[C@H]6[C@H](O)[C@@H](O)[C@@H](O[C@H]7[C@H](O)[C@@H](O)C(O)O[C@@H]7CO)O[C@@H]6CO)O[C@@H]5CO)O[C@@H]4CO)O[C@@H]3CO)O[C@@H]2CO)[C@H](O)[C@@H](O)[C@@H]1O (some centres unmarked) . Its Percentage of remaining substrate on HPLC was 6.7

----------
Kindly supply the reported Percentage of newly formed product (P I to P V) on HPLC values for the records listed here.
Test system: non-reducing saccharide-forming enzyme
Format: biochemical, Rhizobium sp. M-11
Conditions: 20 w/v % substrate, 2 units/g, 40°C., pH 7.0, 48 hours; label = substrate
Record the value in %, omitting the unit from your answer.

The recorded Percentage of newly formed product (P I to P V) on HPLC for OC[C@H]1O[C@H](O[C@H]2[C@H](O)[C@@H](O)[C@@H](O[C@H]3[C@H](O)[C@@H](O)C(O)O[C@@H]3CO)O[C@@H]2CO)[C@H](O)[C@@H](O)[C@@H]1O (some centres unmarked) is 35.0

Percentage of newly formed product (P I to P V) on HPLC measured on OC[C@H]1O[C@H](O[C@H]2[C@H](O)[C@@H](O)[C@@H](O[C@H]3[C@H](O)[C@@H](O)[C@@H](O[C@H]4[C@H](O)[C@@H](O)C(O)O[C@@H]4CO)O[C@@H]3CO)O[C@@H]2CO)[C@H](O)[C@@H](O)[C@@H]1O (some centres unmarked) = 85.6

// sample OC[C@H]1O[C@H](O[C@H]2[C@H](O)[C@@H](O)[C@@H](O[C@H]3[C@H](O)[C@@H](O)[C@@H](O[C@H]4[C@H](O)[C@@H](O)[C@@H](O[C@H]5[C@H](O)[C@@H](O)[C@@H](O[C@H]6[C@H](O)[C@@H](O)C(O)O[C@@H]6CO)O[C@@H]5CO)O[C@@H]4CO)O[C@@H]3CO)O[C@@H]2CO)[C@H](O)[C@@H](O)[C@@H]1O (some centres unmarked) , its Percentage of newly formed product (P I to P V) on HPLC was 93.5

get_value(item= OC[C@H]1O[C@H](O[C@H]2[C@H](O)[C@@H](O)[C@@H](O[C@H]3[C@H](O)[C@@H](O)[C@@H](O[C@H]4[C@H](O)[C@@H](O)[C@@H](O[C@H]5[C@H](O)[C@@H](O)C(O)O[C@@H]5CO)O[C@@H]4CO)O[C@@H]3CO)O[C@@H]2CO)[C@H](O)[C@@H](O)[C@@H]1O (some centres unmarked) , readout=Percentage of newly formed product (P I to P V) on HPLC) returns 92.7

The reported Percentage of newly formed product (P I to P V) on HPLC of the compound OC[C@H]1O[C@H](O[C@H]2[C@H](O)[C@@H](O)[C@@H](O[C@H]3[C@H](O)[C@@H](O)[C@@H](O[C@H]4[C@H](O)[C@@H](O)[C@@H](O[C@H]5[C@H](O)[C@@H](O)[C@@H](O[C@H]6[C@H](O)[C@@H](O)[C@@H](O[C@H]7[C@H](O)[C@@H](O)C(O)O[C@@H]7CO)O[C@@H]6CO)O[C@@H]5CO)O[C@@H]4CO)O[C@@H]3CO)O[C@@H]2CO)[C@H](O)[C@@H](O)[C@@H]1O (some centres unmarked) was 93.4
